The measured values listed here are drawn from patent US20240067748A1.

- assayed_system: T1, monkey Trop2 protein (Sino Biological, #90893-C08H) (monkey, UniProt A0A2K5UE71 27-274)
- T1 construct: bought protein; also called monkey Trop2 protein antigen (His tag)
- T1 sequence: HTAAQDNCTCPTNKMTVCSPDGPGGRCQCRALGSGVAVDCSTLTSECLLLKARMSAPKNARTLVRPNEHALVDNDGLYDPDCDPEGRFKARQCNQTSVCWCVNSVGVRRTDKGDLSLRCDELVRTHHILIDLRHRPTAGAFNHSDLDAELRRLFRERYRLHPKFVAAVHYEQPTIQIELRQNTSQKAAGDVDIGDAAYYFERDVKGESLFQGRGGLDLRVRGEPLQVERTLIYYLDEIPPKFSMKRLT
- assay: BLI, Octet RED96, AHC sensor
recorded_endpoint: kon

Query: Which measured kon value corresponds to PR001162 (antibody, human IgG1, kappa, V domains shown, fully human IgG1/kappa; also called antibody No. (23)) VH: QVQLVESGGGVVQPGTSLRLSCVASGFTFSNDGMHWVRQAPGMGLEWVAIMWFDGGSKYYADSVKGRFTISRDNSKNTLYLQMNNLRAEDTAVYYCARDHPHYLGSGSFDYWGQGTLVTVSS VL: EIVLTQSPATLSLSPGERATLSCRASQSVSSYLAWYQQKPGQAPRLLIYDASNRATGIPARFSGSGSGTDFTLTISSLQAEDVAVYYCQQYYSTPYTFGQGTKLEIKR ?
Result: 200000 M⁻¹ s⁻¹
